protocol.details: NCI Yeast Anticancer Drug Screen. Data for the bub3 strain (AID 167)
condition.parameters: S. cerevisiae bub3 mutant strain, at 3.7 µM, hits give high values
This is part of a sample that, as a whole, favours compounds with a hit. Of some 79,000 tested, about 15% had one in any assay.

- compound: "O=C1C=CC(=Nc2ccc3c(c2)Cc2cc(NC(=O)C(F)(F)F)ccc2-3)O1"
  growth inhibition [%]: -6
- compound: "Cc1ccc(S(=O)(=O)NNC(=S)Nc2cccc3ccccc23)cc1"
  growth inhibition [%]: 0
- compound: "CCC/C(Cl)=N\\OC(=O)Nc1ccc(Br)cc1"
  growth inhibition [%]: 17
- compound: "S=c1[nH]nc(Nc2ccc(Cl)cc2)s1"
  growth inhibition [%]: -1
- compound: "Clc1ccccc1C1OC1c1ccccc1Cl (stereo not drawn)"
  growth inhibition [%]: -53
- compound: "Cc1ccc2ccc(O)cc2c1"
  growth inhibition [%]: 10
- compound: "c1ccc2c(c1)sc1nc3ccncc3nc12"
  growth inhibition [%]: 3
- compound: "CC(=O)Oc1ccc2c(c1)Cc1cc(N=C3C=CC(=O)O3)ccc1-2"
  growth inhibition [%]: 13

----------
Property: growth inhibition; scope: individual molecules
protocol.details: NCI Yeast Anticancer Drug Screen. Data for the rad52 strain (AID 147);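 note: 0% = growth of vehicle-treated control cultures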
condition.parameters: S. cerevisiae rad52 mutant growth inhibition; at 100.0 µM; hits give high values
This is part of a sample that, as a whole, favours compounds with a hit. Of some 79,000 tested, about 15% had one in any assay.
readout.kind: growth inhibition (%)

- molecule: "OC(COc1cccc2ccccc12)CN1CCOCC1 (centres undefined)"
  reading.unit: "%"
  measurement: 50
- molecule: "O=C1OC(CCl)CN1/N=C/c1ccc([N+](=O)[O-])o1 (centres undefined)"
  reading.unit: "%"
  measurement: 88
- molecule: "Cc1ccc(-c2ccc(Nc3c4ccccc4nc4ccccc34)cc2)cn1"
  reading.unit: "%"
  measurement: 92
- molecule: "CC(=O)OCC(=O)C1(O)CCC2C3CCC4CCCCC4(C)C3CCC21C (centres undefined)"
  reading.unit: "%"
  measurement: 83
- molecule: "O=C1c2ccccc2C(=O)c2cc(CBr)ccc21"
  reading.unit: "%"
  measurement: 91
- molecule: "O=C1c2ccccc2C(=O)c2c(NC3CCCCC3)ccc(Nc3ccc(S(=O)(=O)O)cc3)c21"
  reading.unit: "%"
  measurement: 49
- molecule: "O=[N+]([O-])c1ccc(=S)[nH]c1"
  reading.unit: "%"
  measurement: 93
- molecule: "O=C(Cc1csc2[n+]1C(=O)/C(=C/c1ccc(Cl)cc1)S2)Nc1ccccc1"
  reading.unit: "%"
  measurement: 87
- molecule: "COc1ccc(O)c(/C=N\\Nc2ccccc2)c1"
  reading.unit: "%"
  measurement: 55
- molecule: "CC1=NN(c2cccc(Cl)c2)C(=O)C1"
  reading.unit: "%"
  measurement: 14
- molecule: "COc1ccc(/C(C)=N/OC(=O)c2c(-c3ccccc3Cl)noc2C)cc1CN1CCOCC1"
  reading.unit: "%"
  measurement: 75
- molecule: "O=C1C2C(C(=O)N1c1ccc(OCc3ccccc3)cc1)C1c3ccccc3C2C2CCCCN21 (centres undefined)"
  reading.unit: "%"
  measurement: 79
- molecule: "CN1CCc2ccccc2C1Cc1ccccc1NC(=O)c1sc2ccccc2c1Cl (centres undefined)"
  reading.unit: "%"
  measurement: 93
- molecule: "O=[N+]([O-])c1cc(CCl)ccc1CCl"
  reading.unit: "%"
  measurement: 97
- molecule: "CN=C(N)N/N=C/c1ccc2c(c1)Cc1ccccc1-2"
  reading.unit: "%"
  measurement: 94
- molecule: "CC(=O)N/N=C/C(C)(C)C(C)(C)/C=N/NC(C)=O"
  reading.unit: "%"
  measurement: 97
- molecule: "CCOC(=O)[C@H]1Nc2ccccc2C2c3ccccc3CC21 (some centres undefined)"
  reading.unit: "%"
  measurement: 76
- molecule: "O=C1C=CC(=O)c2c(O)c(Nc3ccc(OC(F)(F)F)cc3)c(Cl)c(O)c21"
  reading.unit: "%"
  measurement: 81
- molecule: "Cn1c2ccccc2c(=O)c2cc(NC(=O)CCCCC(=O)Nc3ccc4c(c3)c(=O)c3ccccc3n4C)ccc21"
  reading.unit: "%"
  measurement: 87
- molecule: "CCCCCCc1cc(C(=O)OC/C(C)=N/NC(N)=O)c2ccccc2n1"
  reading.unit: "%"
  measurement: -3
- molecule: "Clc1cccc(C(Nc2nncs2)Nc2nncs2)c1Cl"
  reading.unit: "%"
  measurement: 70
- molecule: "COC(=O)c1ccc(NCC2=CC(=O)C=CC2=O)cc1O"
  reading.unit: "%"
  measurement: 92
- molecule: "CSc1nc(=S)[nH]c2c1c(C)nn2-c1ccccc1"
  reading.unit: "%"
  measurement: 41
- molecule: "CN(C)c1ccc(C(C#N)=C(C#N)C#N)cc1"
  reading.unit: "%"
  measurement: 49

----------
protocol.details: NCI Yeast Anticancer Drug Screen. Data for the rad50 strain (AID 155);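 note: 0% = growth of vehicle-only cultures of the same strain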
condition.parameters: S. cerevisiae rad50 strain growth inhibition; at 1.2 µM; hits give high values
The panel holds about 79,000 compounds, 15% with a hit somewhere; the sample as a whole holds those more often.
# growth inhibition annotations
readout.kind: growth inhibition (%)

- compound: "CNC1C(OC2C(OC3C(O)C(O)C(N=C(N)N)C(O)C3N=C(N)N)OC(C)C2(O)CO)OC(CO)C(O)C1O (stereo not drawn)"
  readout.kind: "growth inhibition"
  reading.unit: "%"
  measurement: -2
- compound: "CCCCCCCCCCCCCCC(C(=O)[O-])[n+]1ccccc1 (stereo not drawn)"
  readout.kind: "growth inhibition"
  reading.unit: "%"
  measurement: 3
- compound: "CSC1=NNC(SC)=NN1"
  readout.kind: "growth inhibition"
  reading.unit: "%"
  measurement: -4
- compound: "O=C(N=Nc1ccccc1Cl)NNc1ccccc1Cl"
  readout.kind: "growth inhibition"
  reading.unit: "%"
  measurement: 8
- compound: "O=C(Nc1ccc(Cl)cc1)OCC#CCCl"
  readout.kind: "growth inhibition"
  reading.unit: "%"
  measurement: -4
- compound: "CN(C)C[C@H]1CC[C@@H](CN(C)C)C1=O"
  readout.kind: "growth inhibition"
  reading.unit: "%"
  measurement: 11
- compound: "COc1ccc(N=C2C(=O)Nc3ccc(Br)cc32)cc1"
  readout.kind: "growth inhibition"
  reading.unit: "%"
  measurement: -14
- compound: "COc1ccc(Br)c(C(=O)Sc2nnnn2-c2cccc(Cl)c2)c1"
  readout.kind: "growth inhibition"
  reading.unit: "%"
  measurement: 2
- compound: "O=C1C2CC[C@@H]3C(=O)C(Cl)(Cl)[C@@H]3CCC2C1(Cl)Cl (stereo partly drawn)"
  readout.kind: "growth inhibition"
  reading.unit: "%"
  measurement: 5
- compound: "CCCC/C=C/C(CC)(C(=O)OCC)C(=O)OCC"
  readout.kind: "growth inhibition"
  reading.unit: "%"
  measurement: -2
- compound: "CC1(Cl)CC(O)C2(CC1Br)C1(C)OC1C1OC1(Br)C2(C)C (stereo not drawn)"
  readout.kind: "growth inhibition"
  reading.unit: "%"
  measurement: -8
- compound: "c1ccc2c(c1)Oc1cccc3cccc-2c13"
  readout.kind: "growth inhibition"
  reading.unit: "%"
  measurement: -2
- compound: "CCCCCCCCCCCCCCCCCCNC"
  readout.kind: "growth inhibition"
  reading.unit: "%"
  measurement: -10

----------
growth inhibition overview
protocol.details: NCI Yeast Anticancer Drug Screen. Data for the rad18 strain (AID 177)
condition.parameters: S. cerevisiae rad18 mutant growth inhibition; at 100.0 µM; hits give high values
About 79,000 compounds went through this panel and 15% of them were active in at least one assay; those are over-represented in the sample as a whole.

- compound: "OC1CSCCCSCCSCCCSC1"
  reading.unit: "%"
  growth inhibition: -75
- compound: "O=[N+]([O-])c1cccc([N+](=O)[O-])c1S(=O)(=O)c1ccccc1"
  reading.unit: "%"
  growth inhibition: 95
- compound: "CCOC(=O)c1cc(-c2ccc(Cl)cc2)c([N+](=O)[O-])n1C"
  reading.unit: "%"
  growth inhibition: 96
- compound: "Cc1ccc2ccc3cccc4ccc1c2c34"
  reading.unit: "%"
  growth inhibition: 82
- compound: "COC(=O)C1=C(C)NC(C)=C(C(=O)OCCCN2CCC(c3ccccc3)(c3ccccc3)CC2)C1c1cccc([N+](=O)[O-])c1 (stereo not given)"
  reading.unit: "%"
  growth inhibition: 88
- compound: "CCCCCCCCNC(=O)C1=C(C)NC(C)=C(C(=O)NCCCCCCCC)C1"
  reading.unit: "%"
  growth inhibition: 2
- compound: "CC(=O)N/N=C/C(C)(C)C(C)(C)/C=N/NC(C)=O"
  reading.unit: "%"
  growth inhibition: 93
- compound: "N#CN=Nc1cc(Cl)c(N=NC#N)cc1Cl"
  reading.unit: "%"
  growth inhibition: 82
- compound: "N#C/C(=C\\c1cccc(OCc2ccccc2)c1)c1ccc([N+](=O)[O-])cc1"
  reading.unit: "%"
  growth inhibition: -36
- compound: "CCCCCCc1cc(C(=O)OC/C(C)=N/NC(N)=O)c2ccccc2n1"
  reading.unit: "%"
  growth inhibition: -7
- compound: "O=[N+]([O-])C(=C(Sc1ccccc1)Sc1ccccc1)C(Cl)=C(Cl)Cl"
  reading.unit: "%"
  growth inhibition: 74
- compound: "Cc1nn(-c2cc(Cl)ccc2[N+](=O)[O-])c(C)c1Cl"
  reading.unit: "%"
  growth inhibition: 1
- compound: "Nc1nc(Cl)c(Cl)c(Cl)n1"
  reading.unit: "%"
  growth inhibition: 99
- compound: "O=C(NCCCCNCCCNC(=O)c1cc(-c2ccccc2)nc2ccccc12)c1cc(-c2ccccc2)nc2ccccc12"
  reading.unit: "%"
  growth inhibition: 91
- compound: "O=[N+]([O-])c1ccc2nc3ccccc3cc2c1"
  reading.unit: "%"
  growth inhibition: 96
- compound: "FC(F)(F)c1nc2nc(Cl)c(Cl)nc2n1CCCN1CCOCC1"
  reading.unit: "%"
  growth inhibition: 43
- compound: "COc1cc2c(cc1[N+](=O)[O-])C(=O)C(Br)(Br)CCC2"
  reading.unit: "%"
  growth inhibition: 95
- compound: "O=C1C2C=CC1C1C(=O)OC(=O)C21 (stereo not given)"
  reading.unit: "%"
  growth inhibition: -10
- compound: "CC(C)c1cc(C(C)C)c(O)c(C([O-])[O-])c1.CC(C)c1cc(C(C)C)c(O)c(C([O-])[O-])c1.CC(C)c1cc(C(C)C)c(O)c(C([OH2+])[OH2+])c1.CC(C)c1cc(C(C)C)c(O)c(C([OH2+])[OH2+])c1.[Cu+2].[Cu+2].[OH3+].[OH3+]"
  reading.unit: "%"
  growth inhibition: 87
- compound: "CCC(C(=O)O)C1=C(c2ccccc2)CCc2ccccc21 (stereo not given)"
  reading.unit: "%"
  growth inhibition: 82
- compound: "CCN(CC)CC[n+]1ccc2c(C)c3[nH]c4ccc(O)cc4c3c(C)c2c1"
  reading.unit: "%"
  growth inhibition: 58
- compound: "[N-]=N[N+]#I1OC(C(F)(F)F)(C(F)(F)F)c2ccccc21"
  reading.unit: "%"
  growth inhibition: 99
- compound: "[N-]=[N+]=NC1=C(c2ccccn2)C(=O)c2cccc3cccc1c23"
  reading.unit: "%"
  growth inhibition: 85
- compound: "CCC(=O)Oc1c(Cl)cc(Cl)c2ccccc12"
  reading.unit: "%"
  growth inhibition: 73
- compound: "C/C(=N\\NC(=S)N1CCCCC1)c1cccc(C)n1"
  reading.unit: "%"
  growth inhibition: 97
- compound: "O=C1C2CC[C@@H]3C(=O)C(Cl)(Cl)[C@@H]3CCC2C1(Cl)Cl (stereo not given in full)"
  reading.unit: "%"
  growth inhibition: 96
- compound: "Cc1ccc(N)c(S)c1"
  reading.unit: "%"
  growth inhibition: 90
- compound: "CCCCCCCCCCCC1=C(O)C(=O)C=C(O)C1=O"
  reading.unit: "%"
  growth inhibition: 92
- compound: "COc1ccc(N=C2C(=O)Nc3ccc(Br)cc32)cc1"
  reading.unit: "%"
  growth inhibition: -28
- compound: "c1ccc2c(c1)C(=NCCCN1CCCCCC1)c1cccn1-2"
  reading.unit: "%"
  growth inhibition: 98
